For each of the compounds below, state its log10 Cytotoxicity.
Test system: A549
Assay: Cytotoxicity against human lung carcinoma A549 cell line
Assay type: functional
All values: base-10 log of Cytotoxicity in ng/mL.

Okay, here is my list. What is log10 Cytotoxicity for each of these?
1. CCN(CC)CCO[C@H]1C[C@H]2OC[C@@]2(OC(C)=O)[C@H]2[C@H](OC(=O)c3ccccc3)[C@]3(O)C[C@H](OC(=O)[C@H](O)[C@@H](NC(=O)c4ccccc4)c4ccccc4)C(C)=C([C@@H](OC(C)=O)[C@H](O)[C@]12C)C3(C)C
2. CC(=O)O[C@@H]1C2=C(C)[C@@H](OC(=O)[C@H](O)[C@@H](NC(=O)c3ccccc3)c3ccccc3)C[C@@](O)([C@@H](OC(=O)c3ccccc3)[C@@H]3[C@]4(OC(C)=O)CO[C@@H]4C[C@H](OCCO)[C@@]3(C)[C@H]1O)C2(C)C
3. CC(=O)O[C@@]12CO[C@@H]1C[C@H](O)[C@]1(C)[C@@H]2[C@H](OC(=O)c2ccccc2)[C@]2(O)C[C@H](OC(=O)[C@H](O)[C@@H](NC(=O)OC(C)(C)C)c3ccccc3)C(C)=C([C@@H](O)[C@@H]1O)C2(C)C
4. CO[C@H]1C[C@H]2OC[C@@]2(OC(C)=O)[C@H]2[C@H](OC(=O)c3ccccc3)[C@]3(O)C[C@H](OC(=O)[C@H](O)[C@@H](NC(=O)c4ccccc4)c4ccccc4)C(C)=C([C@@H](OC(C)=O)[C@H](O)[C@]12C)C3(C)C

[2.60, 1.59, -0.59, 0.08]

Okay, here is my list. What is log10 Cytotoxicity for each of these?
1. CO[C@H]1C[C@H]2OC[C@@]2(OC(C)=O)[C@H]2[C@H](OC(=O)c3ccccc3)[C@]3(O)C[C@H](OC(=O)[C@H](O)[C@@H](NC(=O)OC(C)(C)C)c4ccccc4)C(C)=C([C@@H](OC(C)=O)[C@H](O)[C@]12C)C3(C)C
2. CC(=O)O[C@@H]1C2=C(C)[C@@H](OC(=O)[C@H](O)[C@@H](NC(=O)c3ccccc3)c3ccccc3)C[C@@](O)([C@@H](OC(=O)c3ccccc3)[C@@H]3[C@]4(OC(C)=O)CO[C@@H]4C[C@@H]4OC(=S)O[C@@H]1[C@]43C)C2(C)C
3. CC(=O)O[C@@H]1C2=C(C)[C@@H](OC(=O)[C@H](O)[C@@H](NC(=O)c3ccccc3)c3ccccc3)C[C@@](O)([C@@H](OC(=O)c3ccccc3)[C@@H]3[C@]4(OC(C)=O)CO[C@@H]4C[C@H](OC(C)=O)[C@@]3(C)[C@H]1OC(C)=O)C2(C)C
4. CC(=O)OCCO[C@H]1C[C@H]2OC[C@@]2(OC(C)=O)[C@H]2[C@H](OC(=O)c3ccccc3)[C@]3(O)C[C@H](OC(=O)[C@H](O)[C@@H](NC(=O)c4ccccc4)c4ccccc4)C(C)=C([C@@H](OC(C)=O)[C@H](O)[C@]12C)C3(C)C
5. CC(=O)O[C@@H]1C2=C(C)[C@@H](OC(=O)[C@H](O)[C@@H](NC(=O)c3ccccc3)c3ccccc3)C[C@@](O)([C@@H](OC(=O)c3ccccc3)[C@@H]3[C@]4(OC(C)=O)CO[C@@H]4C[C@@H]4OC(C)(C)O[C@@H]1[C@]43C)C2(C)C
6. CC(=O)O[C@H]1C(=O)[C@@]2(C)[C@H]([C@H](OC(=O)c3ccccc3)[C@]3(O)C[C@H](OC(=O)[C@H](O)[C@@H](NC(=O)c4ccccc4)c4ccccc4)C(C)=C1C3(C)C)[C@]1(OC(C)=O)CO[C@@H]1C[C@@H]2O
7. CCC1O[C@H]2C[C@H]3OC[C@@]3(OC(C)=O)[C@H]3[C@H](OC(=O)c4ccccc4)[C@]4(O)C[C@H](OC(=O)[C@H](O)[C@@H](NC(=O)c5ccccc5)c5ccccc5)C(C)=C([C@@H](OC(C)=O)[C@H](O1)[C@]23C)C4(C)C (stereo partly specified)

1: -0.57; 2: 1.28; 3: 1.18; 4: 2.08; 5: 1.53; 6: 0.63; 7: 1.36

Okay, here is my list. What is log10 Cytotoxicity for each of these?
1. C=CCO[C@H]1C[C@H]2OC[C@@]2(OC(C)=O)[C@H]2[C@H](OC(=O)c3ccccc3)[C@]3(O)C[C@H](OC(=O)[C@H](O)[C@@H](NC(=O)c4ccccc4)c4ccccc4)C(C)=C([C@@H](OC(C)=O)[C@H](O)[C@]12C)C3(C)C
2. CO[C@H]1[C@H](OC(C)=O)C2=C(C)[C@@H](OC(=O)[C@H](O)[C@@H](NC(=O)OC(C)(C)C)c3ccccc3)C[C@@](O)([C@@H](OC(=O)c3ccccc3)[C@@H]3[C@]4(OC(C)=O)CO[C@@H]4C[C@H](O)[C@]31C)C2(C)C

1: 0.00; 2: -1.00

Okay, here is my list. What is log10 Cytotoxicity for each of these?
1. CC(=O)O[C@@H]1C2=C(C)[C@@H](OC(=O)[C@H](O)[C@@H](NC(=O)c3ccccc3)c3ccccc3)C[C@@](O)([C@@H](OC(=O)c3ccccc3)[C@@H]3[C@]4(OC(C)=O)CO[C@@H]4C[C@H](O)[C@@]3(C)[C@H]1O)C2(C)C (stereo in doubt; 14a)
2. CO[C@H]1[C@H](OC(C)=O)C2=C(C)[C@@H](OC(=O)[C@H](O)[C@@H](NC(=O)c3ccccc3)c3ccccc3)C[C@@](O)([C@@H](OC(=O)c3ccccc3)[C@@H]3[C@]4(OC(C)=O)CO[C@@H]4C[C@H](O)[C@]31C)C2(C)C

1. 1.04
2. 0.67
